inhibition at 100 µM values for the molecules below.
Target system: UniProt:P22303
Sequence (P22303 32-614): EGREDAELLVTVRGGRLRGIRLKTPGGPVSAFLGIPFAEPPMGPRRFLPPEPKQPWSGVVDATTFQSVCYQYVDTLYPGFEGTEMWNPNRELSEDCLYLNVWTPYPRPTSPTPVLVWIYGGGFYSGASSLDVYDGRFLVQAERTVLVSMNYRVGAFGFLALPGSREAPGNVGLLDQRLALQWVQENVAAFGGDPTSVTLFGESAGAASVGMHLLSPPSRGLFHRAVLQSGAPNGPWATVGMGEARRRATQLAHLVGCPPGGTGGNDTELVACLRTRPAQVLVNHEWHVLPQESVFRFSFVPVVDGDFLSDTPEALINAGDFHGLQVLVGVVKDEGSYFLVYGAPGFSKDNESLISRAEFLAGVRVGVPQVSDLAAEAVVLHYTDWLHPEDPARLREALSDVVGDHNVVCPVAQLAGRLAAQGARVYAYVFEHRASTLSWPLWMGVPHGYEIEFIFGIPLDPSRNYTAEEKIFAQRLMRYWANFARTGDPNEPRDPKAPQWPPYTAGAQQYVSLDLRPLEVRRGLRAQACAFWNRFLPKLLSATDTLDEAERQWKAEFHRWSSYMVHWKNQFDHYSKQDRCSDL
Assay text: biochemical
Type: biochemical
Measurement conditions: read-out: AChE% inhibition 10^−4 M
From the text: The assay was completed in two steps. The potential inhibitory effects of the obtained molecules on the AChE and BChE enzymes was examined using a variation of the Ellman method.[31,33,41–43] […] The “BioTek-Synergy H1 Microplate Reader (United States)” was employed to establish and follow the enzyme protocol for spectrophotometric measurements. […]

Smiles text: CC(=NN=c1scc(-c2ccc(C)cc2C)n1C)c1ccc(N2CCCCC2)cc1
Unit: %
inhibition at 100 µM: 13.7
--
Smiles text: CC(=NN=c1scc(-c2ccc(F)cc2)n1C)c1ccc(N2CCCCC2)cc1
Unit: %
inhibition at 100 µM: 31.1
--
Smiles text: CC(=NN=c1scc(-c2ccc(C#N)cc2)n1C)c1ccc(N2CCCCC2)cc1
Unit: %
inhibition at 100 µM: 91.2
--
Smiles text: C=CCn1c(-c2ccc(Cl)cc2)csc1=NN=C(C)c1ccc(N2CCCCC2)cc1
Unit: %
inhibition at 100 µM: 28
--
Smiles text: C=CCn1c(-c2ccc(C#N)cc2)csc1=NN=C(C)c1ccc(N2CCCCC2)cc1
Unit: %
inhibition at 100 µM: 29.8
